Each entry below carries its recorded Assay (% w/w).
# PROTOCOL_DETAILS: Active ingredient assay on storage, SCB239-12 (Table 3)
# Format: physicochemical
# RUN_PARAMETERS: 1 month storage, T/C
All answers are understood in % w/w, so give the number only.

>>> df
                                   compound  reported_result
0  CCCCCCC(C)OC(=O)COc1nc(F)c(Cl)c(N)c1Cl (centres unmarked)            11.25
1  CCCCCCCC(=O)Oc1c(Br)cc(C#N)cc1Br [Bromoxynil, Bromoxynil Octanoate]            30.89
2  CCCCCC(C)OC(=O)COc1ccc(Cl)c2cccnc12 (centres unmarked)             0.35
3  COc1nn(C(=O)[N-]S(=O)(=O)c2ccccc2OC(F)(F)F)c(=O)n1C.[Na+] [Flucarbazone, Flucarbazone Sodium]             1.83

# input Give the measured Assay (% w/w) of CCCCC(CC)COC(=O)COc1ccc(Cl)cc1C (centres unmarked) .
# output 33.64

----------
# PROTOCOL_DETAILS: Active ingredient assay on storage, SCB239-12 (Table 3)
# Assay type: physicochemical
# RUN_PARAMETERS: 2 wks, 54° C.
Each entry below carries its recorded Assay (% w/w).
Reply with the number and its unit after it.

# input Give the measured Assay (% w/w) of CCCCC(CC)COC(=O)COc1ccc(Cl)cc1C (centres unmarked) .
# output 34.24 % w/w

# input Give the measured Assay (% w/w) of COc1nn(C(=O)[N-]S(=O)(=O)c2ccccc2OC(F)(F)F)c(=O)n1C.[Na+] [Flucarbazone, Flucarbazone Sodium] .
# output 1.68 % w/w

----------
# PROTOCOL_DETAILS: Active ingredient assay on storage, SCB239-12 (Table 3)
# Assay type: physicochemical
# RUN_PARAMETERS: 3 month storage, 0° C.
OBSERVABLE: Assay (% w/w)
All answers are understood in % w/w, so give the number only.

In [3]: df
Out[3]:
                                   compound  units_of_measure  reported_result
0  COc1nn(C(=O)[N-]S(=O)(=O)c2ccccc2OC(F)(F)F)c(=O)n1C.[Na+] [Flucarbazone, Flucarbazone Sodium]             % w/w             1.80
1  CCCCCCC(C)OC(=O)COc1nc(F)c(Cl)c(N)c1Cl (centres unmarked)             % w/w            11.23
2  CCCCC(CC)COC(=O)COc1ccc(Cl)cc1C (centres unmarked)             % w/w            33.76
3  CCCCCCCC(=O)Oc1c(Br)cc(C#N)cc1Br [Bromoxynil, Bromoxynil Octanoate]             % w/w            30.06

# input Give the measured Assay (% w/w) of CCCCCC(C)OC(=O)COc1ccc(Cl)c2cccnc12 (centres unmarked) .
# output 0.35

----------
# PROTOCOL_DETAILS: Active ingredient assay on storage, SCB239-12 (Table 3)
# Type: physicochemical
# RUN_PARAMETERS: Initial
Each entry below carries its recorded Assay (% w/w).
All answers are understood in % w/w, so give the number only.

In the examples that follow, each entry is paired with its recorded Assay (% w/w).
                                   compound     observable  units_of_measure  reported_result
0  CCCCCCC(C)OC(=O)COc1nc(F)c(Cl)c(N)c1Cl (centres unmarked)  Assay (% w/w)             % w/w            11.32
1  CCCCCCCC(=O)Oc1c(Br)cc(C#N)cc1Br [Bromoxynil, Bromoxynil Octanoate]  Assay (% w/w)             % w/w            31.22
2  CCCCCC(C)OC(=O)COc1ccc(Cl)c2cccnc12 (centres unmarked)  Assay (% w/w)             % w/w             0.35
3  CCCCC(CC)COC(=O)COc1ccc(Cl)cc1C (centres unmarked)  Assay (% w/w)             % w/w            33.69

# input Give the measured Assay (% w/w) of COc1nn(C(=O)[N-]S(=O)(=O)c2ccccc2OC(F)(F)F)c(=O)n1C.[Na+] [Flucarbazone, Flucarbazone Sodium] .
# output 1.81

----------
# PROTOCOL_DETAILS: Active ingredient assay and recovery on storage (Table 2)
# Assay type: physicochemical
# RUN_PARAMETERS: 6 month storage, 25° C.
Each entry below carries its recorded Assay (% w/w).
All answers are understood in % w/w, so give the number only.

In the examples that follow, each entry is paired with its recorded Assay (% w/w).
>>> df
                                   compound  reported_result
0  COc1nn(C(=O)[N-]S(=O)(=O)c2ccccc2OC(F)(F)F)c(=O)n1C.[Na+] [Flucarbazone, Flucarbazone Sodium]             1.92
1  CCCCCCCC(=O)Oc1c(Br)cc(C#N)cc1Br [Bromoxynil, Bromoxynil Octanoate]            31.38
2  CCCCCC(C)OC(=O)COc1ccc(Cl)c2cccnc12 (centres unmarked)             0.39
3  CCCCCCC(C)OC(=O)COc1nc(F)c(Cl)c(N)c1Cl (centres unmarked)            11.36

Please turn your attention to the following entry.
# input Give the measured Assay (% w/w) of CCCCC(CC)COC(=O)COc1ccc(Cl)cc1C (centres unmarked) .
# output 34.14

----------
# PROTOCOL_DETAILS: Active ingredient assay on storage, SCB239-12 (Table 3)
# Assay type: physicochemical
# RUN_PARAMETERS: 1 month storage, 40° C.
Each entry below carries its recorded Recovery of active ingredient (% of initial assay).
All answers are understood in % w/w, so give the number only.

In the examples that follow, each entry is paired with its recorded Recovery of active ingredient (% of initial assay).
                                   molecule  reported_result
0  CCCCCCCC(=O)Oc1c(Br)cc(C#N)cc1Br [Bromoxynil, Bromoxynil Octanoate]            98.17
1  CCCCC(CC)COC(=O)COc1ccc(Cl)cc1C (centres unmarked)            99.77
2  CCCCCC(C)OC(=O)COc1ccc(Cl)c2cccnc12 (centres unmarked)            99.58
3  CCCCCCC(C)OC(=O)COc1nc(F)c(Cl)c(N)c1Cl (centres unmarked)            99.33

Please turn your attention to the following entry.
# input Give the measured Recovery of active ingredient (% of initial assay) of COc1nn(C(=O)[N-]S(=O)(=O)c2ccccc2OC(F)(F)F)c(=O)n1C.[Na+] [Flucarbazone, Flucarbazone Sodium] .
# output 101.98

----------
Each entry below carries its recorded Assay (% w/w).
# PROTOCOL_DETAILS: Active ingredient assay on storage, SCB239-12 (Table 3)
# Type: physicochemical
# RUN_PARAMETERS: 3 month storage, 40° C.
All answers are understood in % w/w, so give the number only.

In the examples that follow, each entry is paired with its recorded Assay (% w/w).
In [3]: df
Out[3]:
                                   compound  reported_result
0  CCCCCCC(C)OC(=O)COc1nc(F)c(Cl)c(N)c1Cl (centres unmarked)            11.21
1  CCCCCCCC(=O)Oc1c(Br)cc(C#N)cc1Br [Bromoxynil, Bromoxynil Octanoate]            29.37
2  COc1nn(C(=O)[N-]S(=O)(=O)c2ccccc2OC(F)(F)F)c(=O)n1C.[Na+] [Flucarbazone, Flucarbazone Sodium]             1.72
3  CCCCCC(C)OC(=O)COc1ccc(Cl)c2cccnc12 (centres unmarked)             0.35

# input Give the measured Assay (% w/w) of CCCCC(CC)COC(=O)COc1ccc(Cl)cc1C (centres unmarked) .
# output 33.61

----------
# PROTOCOL_DETAILS: Active ingredient assay on storage, SCB239-12 (Table 3)
# Type: physicochemical
# RUN_PARAMETERS: 1 month storage, 0° C.
Each entry below carries its recorded Recovery of active ingredient (% of initial assay).

In the examples that follow, each entry is paired with its recorded Recovery of active ingredient (% of initial assay).
>>> df
                                   molecule  reported_result
0  CCCCCCCC(=O)Oc1c(Br)cc(C#N)cc1Br [Bromoxynil, Bromoxynil Octanoate]      99.56 % w/w
1  CCCCCCC(C)OC(=O)COc1nc(F)c(Cl)c(N)c1Cl (centres unmarked)      99.37 % w/w
2  CCCCC(CC)COC(=O)COc1ccc(Cl)cc1C (centres unmarked)      99.88 % w/w
3  CCCCCC(C)OC(=O)COc1ccc(Cl)c2cccnc12 (centres unmarked)     100.15 % w/w

Please turn your attention to the following entry.
# input Give the measured Recovery of active ingredient (% of initial assay) of COc1nn(C(=O)[N-]S(=O)(=O)c2ccccc2OC(F)(F)F)c(=O)n1C.[Na+] [Flucarbazone, Flucarbazone Sodium] .
# output 99.67 % w/w

Source listed as patent US11877574B2.
